ASSAY SYSTEM: TEAD2 TAZ (amino acids 13-57) (Homo sapiens, UniProt Q15562)
Sequence (Q15562 217-447): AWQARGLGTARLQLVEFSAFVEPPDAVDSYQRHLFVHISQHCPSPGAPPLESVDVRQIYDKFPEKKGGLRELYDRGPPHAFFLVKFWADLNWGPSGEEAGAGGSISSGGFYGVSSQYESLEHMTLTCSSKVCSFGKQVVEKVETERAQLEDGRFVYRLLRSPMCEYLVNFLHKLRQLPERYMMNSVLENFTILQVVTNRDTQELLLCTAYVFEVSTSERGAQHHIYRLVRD
ASSAY OVERVIEW: TEAD2-TAZ HTRF (TR-FRET) protein-protein interaction assay
Type: binding
ASSAY CONTEXT: TEAD2, TAZ peptide, HTRF
Experimental: Purified His-tagged TEAD protein (YAP Binding Domain, amino acids 217-447) is pre-incubated with Europium labelled anti-His antibody tracer (Perkin Elmer Cat #AD0110). […] After 60 minutes, the plate is read on a plate reader using TR-FRET mode with wavelengths of 665 nm/615 nm. […] The potency of compounds as YAP:TEAD or TAZ:TEAD protein-protein interaction (PPi) inhibitors is determined by an IC50 or EC50 value generated using a non-linear four parameter curve fit.
ENDPOINT LABEL: TEAD2 TAZ HTRF combined: Max % Inhibition (%)

INSERT INTO measurements (molecule, measure_unit, data_value) VALUES
  ('CC1CCN1C(=O)c1nn2c(=O)cc(-c3ccc(C4CCCCC4)cc3)[nH]c2c1C(=O)N1CC(CF)C1 (single isomer, unassigned) [Enantiomer B, Example 33]', '%', 68.0),
  ('Cc1nccnc1-c1nn2c(=O)cc(-c3ccc(C4CCCCC4)cc3)[nH]c2c1C(=O)N1CC(CF)C1', '%', 67.9),
  ('C[C@@H]1[C@H](CF)CN1C(=O)c1c(C(=O)N(C)C)nn2c(=O)cc(-c3ccc(C4CCCCC4)cc3)[nH]c12', '%', 67.5),
  ('C[C@H]1[C@@H](CF)CN1C(=O)c1c(-c2cnccn2)nn2c(=O)cc(-c3ccc(CC4CCCC4)cc3)[nH]c12 (single isomer, unassigned) [Isomer B, Example 44]', '%', 67.5),
  ('CCc1ccnc(-c2nn3c(=O)cc(-c4ccc(C5CCCCC5)cc4)[nH]c3c2C(=O)N2CC(CF)C2)n1', '%', 64.5),
  ('Cc1nccnc1-c1nn2c(=O)cc(-c3ccc(-c4ccccc4)cc3)[nH]c2c1C(=O)N1CC(CF)C1', '%', 66.5);

====

ASSAY SYSTEM: TEAD2 TAZ (amino acids 13-57) (Homo sapiens, UniProt Q15562)
ASSAY OVERVIEW: TEAD2-TAZ HTRF (TR-FRET) protein-protein interaction assay
Assay type: binding
ASSAY CONTEXT: TEAD2, TAZ peptide, HTRF
ENDPOINT LABEL: TEAD2 TAZ HTRF combined: Max % Inhibition (%)

INSERT INTO measurements (molecule, data_value) VALUES
  ('CCn1cnc(-c2nn3c(=O)cc(-c4ccc(C5CCCCC5)cc4)[nH]c3c2C(=O)N2CC(CF)C2)c1 [Compound 31]', 60.5),
  ('O=C(c1c(-c2ccccn2)nn2c(=O)cc(-c3ccc(C4CCCCC4)cc3)[nH]c12)N1CC(CF)C1 [Compound 16]', 53.5),
  ('Cc1nccnc1-c1nn2c(=O)cc(-c3ccc(CC4CCCC4)cc3)[nH]c2c1C(=O)N1C[C@@H](CF)[C@H]1C (single isomer, unassigned) [Isomer A, Example 42]', 57.0);

====

ASSAY SYSTEM: TEAD2 YAP50-100 (Homo sapiens)
Sequence (Q15562 217-447): as above
ASSAY OVERVIEW: TEAD2-YAP HTRF (TR-FRET) protein-protein interaction assay
ASSAY CONTEXT: TEAD2, YAP peptide 50-100, HTRF; read-out: TEAD2 YAP50-100 HTRF combined: EC50
pEC50: −log10 of the molar value.
ENDPOINT LABEL: pEC50

INSERT INTO results (compound, assay_system, endpoint_label, data_value) VALUES
  ('N#Cc1nccnc1-c1nn2c(=O)cc(-c3ccc(C4CCCCC4)cc3)[nH]c2c1C(=O)N1CC(CF)C1', 'TEAD2 YAP50-100 (Homo sapiens)', 'pEC50', 7.70);

a. CN(C)C(=O)c1nn2c(=O)cc(-c3ccc(C4CCCCC4)c(F)c3)[nH]c2c1C(=O)N1CC(CF)C1
b. O=C(c1c(C2CNCCO2)nn2c(=O)cc(-c3ccc(C4CCCCC4)cc3)[nH]c12)N1CC(CF)C1 (single isomer, unassigned) [Enantiomer A, Example 63]
c. CC1CCN1C(=O)c1nn2c(=O)cc(-c3ccc(C4CCCCC4)cc3)[nH]c2c1C(=O)N1CC(CF)C1 (single isomer, unassigned) [Enantiomer A, Example 33]
Lookup: Exam item: list the entries in increasing order of pEC50. In plain terms: list the labels in the order you were asked to.
Found: b, c, a
(b: 7.40, c: 7.70, a: 8.00)

1. CCCCCCCCCc1cc(=O)n2nc(-c3nccnc3C)c(C(=O)N3C[C@H](CF)[C@@H]3C)c2[nH]1
2. O=C(c1c(-c2ccccc2)nn2c(=O)cc(-c3ccc(C4CCCCC4)cc3)[nH]c12)N1CC(CF)C1
Lookup: Of 1 and 2 , which carries the smaller reported pEC50 figure? Lab note: record the label of whichever item you select.
Found: 2
(2: 7.52, 1: 8.00)

====

ASSAY SYSTEM: TEAD4 TAZ (amino acids 13-57) (Homo sapiens, UniProt Q15561)
Sequence (Q15561 217-434 limits assumed): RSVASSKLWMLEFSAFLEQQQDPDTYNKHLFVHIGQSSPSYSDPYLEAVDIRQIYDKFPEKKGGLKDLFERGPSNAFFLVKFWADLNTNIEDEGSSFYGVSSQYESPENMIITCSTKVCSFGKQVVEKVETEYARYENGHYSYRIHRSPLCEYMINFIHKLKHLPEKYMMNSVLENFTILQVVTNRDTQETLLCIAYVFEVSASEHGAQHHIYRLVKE
ASSAY OVERVIEW: TEAD4-TAZ HTRF (TR-FRET) protein-protein interaction assay
ASSAY CONTEXT: TEAD4-TAZ HTRF, TR-FRET 665 nm/615 nm; read-out: TEAD4 TAZ HTRF combined: EC50
pEC50: −log10 of the molar value.
ENDPOINT LABEL: pEC50

A. O=C(c1c(-c2nccnc2C(F)(F)F)nn2c(=O)cc(-c3ccc(C4CCCCC4)cc3)[nH]c12)N1CC(CF)C1
B. CC(C)(C)c1ccc(COc2cc(=O)n3nc(-c4cnccn4)c(C(=O)N4CC(CF)C4)c3[nH]2)cc1
C. C[C@@H]1[C@H](CF)CN1C(=O)c1c(C(=O)N(C)C)nn2c(=O)cc(-c3ccc(C4CCCCC4)cc3)[nH]c12
D. Cc1nccnc1-c1nn2c(=O)cc(-c3ccc(OC(c4ccccc4)C(F)(F)F)cc3)[nH]c2c1C(=O)N1C[C@H](CF)[C@@H]1C (single isomer, unassigned) [Final product obtained using Enantiomer B from Step 1, Example 56]
E. CC1CCN1C(=O)c1nn2c(=O)cc(-c3ccc(C4CCCCC4)cc3)[nH]c2c1C(=O)N1CC(CF)C1 (single isomer, unassigned) [Enantiomer B, Example 33]
Lookup: Sort the compounds on pEC50; start with the lowest figure. # list labels per requested ordering
Found: C, D, E, A, B

====

ASSAY SYSTEM: TEAD2 TAZ (amino acids 13-57) (Homo sapiens, UniProt Q15562)
ASSAY OVERVIEW: TEAD2-TAZ HTRF (TR-FRET) protein-protein interaction assay
Type: binding
ASSAY CONTEXT: TEAD2, TAZ peptide, HTRF
ENDPOINT LABEL: TEAD2 TAZ HTRF combined: Max % Inhibition (%)

These solved cases illustrate the format of a correct answer.
INSERT INTO assay_data (compound, measure_unit, data_value) VALUES
  ('CCCCc1ccc(-c2cc(=O)n3nc(-c4nccnc4C)c(C(=O)N4CC(CF)C4)c3[nH]2)cc1 [Compound 58]', '%', 66.5),
  ('Cc1ccnc(-c2nn3c(=O)cc(-c4ccc(C5CCCCC5)cc4)[nH]c3c2C(=O)N2CC(CF)C2)c1C [Compound 29]', '%', 70.0),
  ('CC(C)c1ccc(COc2cc(=O)n3nc(-c4cnccn4)c(C(=O)N4CC(CF)C4)c3[nH]2)cc1 [Compound 52]', '%', 69.0),
  ('O=C(c1c(-c2nccnc2C(F)(F)F)nn2c(=O)cc(-c3ccc(C4CCCCC4)cc3)[nH]c12)N1CC(CF)C1 [Compound 7]', '%', 67.0),
  ('O=C(c1c(-c2cccnc2)nn2c(=O)cc(-c3ccc(C4CCCCC4)cc3)[nH]c12)N1CC(CF)C1 [Compound 37]', '%', 50.0),
  ('O=C(c1c(-c2cnccn2)nn2c(=O)cc(-c3ccc(C4CCCCC4)cc3)[nH]c12)N1CC(CF)C1 [Compound 17]', '%', 60.9);

a. C[C@H]1[C@@H](CF)CN1C(=O)c1c(C(=O)N(C)C)nn2c(=O)cc(-c3ccc(C4CCCCC4)cc3)[nH]c12 [Compound 5]
b. O=C(c1c(-c2ncccn2)nn2c(=O)cc(-c3ccc(C4(C5CCCC5)CC4)cc3)[nH]c12)N1CC(CF)C1 [Compound 57]
Lookup: Select one: a or b . Criterion: greater recorded TEAD2 TAZ HTRF combined: Max % Inhibition. Field: selected label. Fill in the label of the entry you choose.
Found: a

====

ASSAY SYSTEM: TEAD3 YAP50-100 (Homo sapiens, UniProt Q99594)
Sequence (Q99594 173-435 limits assumed): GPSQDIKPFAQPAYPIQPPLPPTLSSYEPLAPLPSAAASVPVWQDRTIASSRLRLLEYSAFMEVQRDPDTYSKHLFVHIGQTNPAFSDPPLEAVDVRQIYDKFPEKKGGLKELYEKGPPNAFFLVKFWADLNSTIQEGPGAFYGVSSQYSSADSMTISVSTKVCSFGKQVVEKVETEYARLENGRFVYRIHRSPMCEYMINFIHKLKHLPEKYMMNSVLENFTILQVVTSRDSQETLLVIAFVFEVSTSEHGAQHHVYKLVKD
ASSAY OVERVIEW: TEAD3-YAP HTRF (TR-FRET) protein-protein interaction assay
ASSAY CONTEXT: TEAD3, YAP peptide 50-100, HTRF; read-out: TEAD3 YAP50-100 HTRF combined: EC50
Method: Purified His-tagged TEAD protein (YAP Binding Domain, amino acids 217-447) is pre-incubated with Europium labelled anti-His antibody tracer (Perkin Elmer Cat #AD0110). […] After 60 minutes, the plate is read on a plate reader using TR-FRET mode with wavelengths of 665 nm/615 nm. […] The potency of compounds as YAP:TEAD or TAZ:TEAD protein-protein interaction (PPi) inhibitors is determined by an IC50 or EC50 value generated using a non-linear four parameter curve fit.
pEC50: −log10 of the molar value.
ENDPOINT LABEL: pEC50

Here are 4 compounds together with their reported answers.
INSERT INTO results (compound, data_value) VALUES
  ('CC(C)(C)c1ccc(COc2cc(=O)n3nc(-c4cnccn4)c(C(=O)N4CC(CF)C4)c3[nH]2)cc1', 6.96),
  ('Cc1nccnc1-c1nn2c(=O)cc(-c3ccc(C4CCCCC4)c(F)c3)[nH]c2c1C(=O)N1CC(CF)C1', 7.10),
  ('O=C(c1c(-c2nccnc2C(F)(F)F)nn2c(=O)cc(-c3ccc(C4CCCCC4)cc3)[nH]c12)N1CC(CF)C1', 6.46),
  ('Cc1nccnc1-c1nn2c(=O)cc(-c3ccc(CC(C)(C)C)cc3)[nH]c2c1C(=O)N1C[C@H](CF)[C@@H]1C (racemic)', 6.82);

I. CCn1cnc(-c2nn3c(=O)cc(-c4ccc(C5CCCCC5)cc4)[nH]c3c2C(=O)N2CC(CF)C2)c1
II. O=C(c1c(-c2ncccn2)nn2c(=O)cc(-c3ccc(C4(C5CCCC5)CC4)cc3)[nH]c12)N1CC(CF)C1
III. C[C@@H]1[C@H](CF)CN1C(=O)c1c(C(=O)N(C)C)nn2c(=O)cc(-c3ccc(C4CCCCC4)cc3)[nH]c12
IV. Cn1cnc(-c2nn3c(=O)cc(-c4ccc(C5CCCCC5)cc4)[nH]c3c2C(=O)N2CC(CF)C2)c1
Lookup: Order the entries by their reported pEC50, beginning at the minimum. Your answer should be the labels, listed in the requested order.
Found: III, I, II, IV
(III: 5.31, I: 6.77, II: 7.00, IV: 7.22)

a. Cc1ccnc(-c2nn3c(=O)cc(-c4ccc(C5CCCCC5)cc4)[nH]c3c2C(=O)N2CC(CF)C2)n1
b. [2H]C1([2H])C([2H])([2H])C([2H])([2H])C([2H])(c2ccc(-c3cc(=O)n4nc(-c5nccnc5C)c(C(=O)N5C[C@H](CF)[C@@H]5C)c4[nH]3)cc2)C([2H])([2H])C1([2H])[2H]
Lookup: For this pair, a and b , which shows a numerically higher pEC50? Reply briefly: the label of your chosen item.
Found: a
(a: 7.10, b: 6.80)

A. COc1ccnc(-c2nn3c(=O)cc(-c4ccc(C5CCCCC5)cc4)[nH]c3c2C(=O)N2CC(CF)C2)n1
B. CC1CCN1C(=O)c1nn2c(=O)cc(-c3ccc(C4CCCCC4)cc3)[nH]c2c1C(=O)N1CC(CF)C1 (single isomer, unassigned) [Enantiomer A, Example 33]
Lookup: Please indicate which entry, A or B , has the lower recorded pEC50 value. Which one? Tell me its label.
Found: B

Data provenance is patent US12692269B2.
